Listed below: TGI values for each entry.
Tested on: MDA-MB-468 breast
TEST_NAME: NCI tumour cell line growth inhibition, 48 h
MEASURED_QUANTITY: TGI (µM)

SMILES_NOTATION	SCALE_UNIT	MEASUREMENT
CN1CCN(c2ccc(Nc3cc(-c4cccc(-n5ccc6cc(C7CC7)cc(F)c6c5=O)c4CO)cn(C)c3=O)nc2)CC1	µM	17.1
C[C@@H](Nc1c(C#N)cnc2ccc(-c3cnc(Cl)c(NS(C)(=O)=O)c3)cc12)c1ccccc1	µM	1.23
COc1cc(N=Nc2ccc(O)c3ncccc23)c2ncccc2c1	µM	6.64
O=C(N/N=C/c1ccc(Cl)o1)c1[nH]c2ccc(Br)cc2c1-c1ccccc1	µM	6.37
Cc1cc(N[C@@H]2CCC[C@H](Nc3ccnc4cc(Cl)ccc34)C2)nc(N2CCCCCC2)n1	µM	3.11
O=C(NC[C@H](O)CN1CCc2ccccc2C1)c1cc(NC2COC2)ncn1	µM	24.5
CNCCOC(=O)/C=C1\CC[C@H]2[C@@H]([C@@H](O)C(=O)[C@@H]3[C@]2(C)CC[C@H](O)[C@]3(C)C(=O)OC)[C@H]1C	µM	3.69
COc1cnc2c(c1)C(=O)c1c-2n(CCCN2CCOCC2)c(=O)c2cc(Cl)ccc12	µM	0.544
NC(N)=N/N=C/c1c(Cl)cccc1Cl	µM	26.5
CN(C)CC[C@H](CSc1ccccc1)Nc1ccc(S(=O)(=O)NC(=O)c2ccc(N3CCN(Cc4ccccc4-c4ccc(Cl)cc4)CC3)cc2)cc1[N+](=O)[O-]	µM	3.65
CCc1cc(OC(=O)N2CCC(N3CCCCC3)CC2)ccc1Nc1cc(-c2ccc(-n3cccn3)cc2)[nH]n1	µM	3.65
